Biological target: T1, human TIGIT-Fc (human, UniProt Q495A1 22-141, limits assumed)
T1 construct: not shown: Fc; not described
T1 sequence (looked up): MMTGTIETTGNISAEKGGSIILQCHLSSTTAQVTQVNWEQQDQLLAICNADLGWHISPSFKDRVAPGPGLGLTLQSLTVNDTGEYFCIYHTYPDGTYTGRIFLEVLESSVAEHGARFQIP
Test: CD155 competition ELISA, titration
Record form. Attribute: pEC50. Fill in for each entry.
Numbers only, as −log10 of the molar value.

Some solved entries appear below for comparison.
| binder | pEC50 |
| --- | --- |
| TIGIT-SC58 (Fc fusion, VHH-Fc) VHH: EVQLVESGGGLVQPGGSLRLSCAASGFTLGYYVMGWFRQAPGKEREFVATINWSGTLTSYADSVKGRFTISADNSKNTAYLQMNSLKPEDTAVYYCARWVGPKYYFDYWGQGTLVTVSS | 9.52 |
| TIGIT-SC38 (Fc fusion, VHH-Fc) VHH: EVQLVESGGGLVQPGGSLRLSCAASGFTFSEYPMGWFRQAPGKEREFVAVVNWNGDSTYYADSVKGRFTISADNSKNTAYLQMNSLKPEDTAVYYCARGSDWYRYWGQGTLVTVSS | 9.74 |
| TIGIT-SC31 (Fc fusion, VHH-Fc) VHH: EVQLVESGGGLVQPGGSLRLSCAASGRAFESYAMGWFRQAPGKERELVATIGWSGTDYADSVKGRFTISADNSKNTAYLQMNSLKPEDTAVYYCAKGYTSGLSDWGQGTLVTVSS | 8.75 |
| TIGIT-SC83 (Fc fusion, VHH-Fc) VHH: EVQLVESGGGLVQPGGSLRLSCAASGRTFSDDAMGWFRQAPGKEREFVAAISRSGGNTYYADSVKGRFTISADNSKNTAYLQMNSLKPEDTAVYYCAKWFYYGSGLYTLDVWGQGTLVTVSS | 8.36 |
| TIGIT-SC41 (Fc fusion, VHH-Fc) VHH: EVQLVESGGGLVQPGGSLRLSCAASGMTTIGPMGWFRQAPGKEREFVASIAWGDGNTYYADSVKGRFTISADNSKNTAYLQMNSLKPEDTAVYYCVRGGSRTLWGQGTLVTVSS | 8.00 |

Parameter requested: pEC50. Apply to each item below.
1. TIGIT-SC51 (Fc fusion, VHH-Fc) VHH: EVQLVESGGGLVQPGGSLRLSCAASGRTEANYAMGWFRQAPGKEREFVAAISWDGGATAYADSVKGRFTISADNSKNTAYLQMNSLKPEDTAVYYCGDYEGHWGQGTLVTVSS
2. TIGIT-SC63 (Fc fusion, VHH-Fc) VHH: EVQLVESGGGLVQPGGSLRLSCAASGRAIGSYGMGWFRQAPGKEREFVATISVSGVYTYYADSVKGRFTISADNSKNTAYLQMNSLKPEDTAVYYCARATPGGVVPWGQGTLVTVSS
3. TIGIT-SC64 (Fc fusion, VHH-Fc) VHH: EVQLVESGGGLVQPGGSLRLSCAASGFAFSNFGMGWFRQAPGKERELVSAIGWSGASTYYADSVKGRFTISADNSKNTAYLQMNSLKPEDTAVYYCARRGRTIPFDYWGQGTLVTVSS
4. TIGIT-SC82 (Fc fusion, VHH-Fc) VHH: EVQLVESGGGLVQPGGSLRLSCAASGSMSSNYAMGWFRQAPGKEREFVAAIDWSGGNTYYADSVKGRFTISADNSKNTAYLQMNSLKPEDTAVYYCAKWFYYGSGLYTLDVWGQGTLVTVSS
5. TIGIT-SC151 (Fc fusion, VHH-Fc) VHH: EVQLVESGGGLVQPGGSLRLSCAASGFPFSIYPMGWFRQAPGKEREFVAAISASGTLRAYADSVKGRFTISADNSKNTAYLQMNSLKPEDTAVYYCARSSSWVRIFDYWGQGTLVTVSS
6. TIGIT-SC68 (Fc fusion, VHH-Fc) VHH: EVQLVESGGGLVQPGGSLRLSCAASGHTFRGYAMGWFRQAPGKEREAVAAISWSGDNTYYADSVKGRFTISADNSKNTAYLQMNSLKPEDTAVYYCGDYEGHWGQGTLVTVSS

Response:
1: 8.46; 2: 6.87; 3: 8.02; 4: 8.39; 5: 8.38; 6: 8.19
